Measured values drawn from ChEMBL document CHEMBL2424582 for this set.

MEASURED_ON: C-C chemokine receptor type 2 (Homo sapiens, UniProt P41597)
OBSERVED_PROPERTY: Ki (nM)

- CC(C)[C@]1(C(=O)NCc2cc(C(F)(F)F)cc(C(F)(F)F)c2)CC[C@@H](NC2CCc3cc(Br)ccc32)C1 (mixture of isomers): 7.2
- CC(C)[C@]1(C(=O)NCc2cc(C(F)(F)F)cc(C(F)(F)F)c2)CC[C@@H](NC2CCc3c(O)cccc32)C1 (stereo partly specified): 86
- CC(C)[C@]1(C(=O)NCc2cc(C(F)(F)F)cc(C(F)(F)F)c2)CC[C@@H](NC2CCc3cc4c(cc32)OCO4)C1 (stereo partly specified): 6.3
- CC(C)[C@]1(C(=O)NCc2cc(C(F)(F)F)cc(C(F)(F)F)c2)CC[C@@H](NC2CCc3c(N)cccc32)C1 (stereo partly specified): 43
- CC(C)[C@]1(C(=O)NCc2cc(C(F)(F)F)cc(C(F)(F)F)c2)CC[C@@H](NC2CCc3ccccc32)C1 (stereo partly specified): 50

1 = CC(C)[C@]1(C(=O)NCc2cc(C(F)(F)F)cc(C(F)(F)F)c2)CC[C@@H](NC2CCCc3c(O)cccc32)C1 (stereo partly specified)
2 = CC(C)[C@]1(C(=O)NCc2cc(C(F)(F)F)cc(C(F)(F)F)c2)CC[C@@H](NC2CCc3ccc(C#N)cc32)C1 (stereo partly specified)
3 = CC(C)[C@]1(C(=O)NCc2cc(C(F)(F)F)cc(C(F)(F)F)c2)CC[C@@H](NC2CCCCC2)C1
// ascending sort on recorded Ki When ranking, write the labels in the order the request describes. 1, 2, 3
(1: 35 nM, 2: 54 nM, 3: 110 nM)

I = COc1cccc2c1CCCC2N[C@@H]1CC[C@@](C(=O)NCc2cc(C(F)(F)F)cc(C(F)(F)F)c2)(C(C)C)C1 (stereo partly specified)
II = COc1ccc2c(c1OC)CCC2N[C@@H]1CC[C@@](C(=O)NCc2cc(C(F)(F)F)cc(C(F)(F)F)c2)(C(C)C)C1 (stereo partly specified)
Short answer wanted: higher Ki, I or II ? Return value: the label identifying the chosen record. II
(II: 130 nM, I: 27 nM)

---

MEASURED_ON: C-C chemokine receptor type 2 (Homo sapiens)
MEASUREMENT_NOTES: Displacement of [3H]INCB3344 from human CCR2 receptor expressed in human U2OS cell membrane assessed as kinetic rate index at Ki by dual-point competition association assay relative to control
Sequence (P41597 whole entry, looked up): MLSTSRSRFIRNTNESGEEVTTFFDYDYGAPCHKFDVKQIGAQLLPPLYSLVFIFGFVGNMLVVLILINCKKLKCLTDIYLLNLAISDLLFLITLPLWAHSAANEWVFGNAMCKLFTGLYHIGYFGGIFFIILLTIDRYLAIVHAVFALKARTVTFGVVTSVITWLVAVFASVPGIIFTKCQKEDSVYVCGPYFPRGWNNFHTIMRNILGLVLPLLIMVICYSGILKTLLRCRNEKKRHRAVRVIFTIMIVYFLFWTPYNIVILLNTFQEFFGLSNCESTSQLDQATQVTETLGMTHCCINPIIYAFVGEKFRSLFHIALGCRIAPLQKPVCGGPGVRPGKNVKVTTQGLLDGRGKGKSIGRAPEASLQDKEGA
OBSERVED_PROPERTY: Ratio

These recorded examples may help you get a feel for the data.
- COc1cc2c(cc1OC)C(N[C@@H]1CC[C@@](C(=O)NCc3cc(C(F)(F)F)cc(C(F)(F)F)c3)(C(C)C)C1)CC2 (stereo not given in full): 0.7
- CC(C)[C@]1(C(=O)NCc2cc(C(F)(F)F)cc(C(F)(F)F)c2)CC[C@@H](NC2CCc3ccc(C#N)cc32)C1 (stereo not given in full): 0.6
- CC(C)[C@]1(C(=O)NCc2cc(C(F)(F)F)cc(C(F)(F)F)c2)CC[C@@H](NC2CCCc3c(O)cccc32)C1 (stereo not given in full): 0.8

P = CC(C)[C@]1(C(=O)NCc2cc(C(F)(F)F)cc(C(F)(F)F)c2)CC[C@@H](NC2CCc3cc(O)ccc32)C1 (stereo not given in full)
Q = CC(C)[C@]1(C(=O)NCc2cc(C(F)(F)F)cc(C(F)(F)F)c2)CC[C@@H](NC2CCc3cc(Br)ccc32)C1 (mixture of isomers)
Short answer wanted: higher Ratio, P or Q ? Return value: the label identifying the chosen record. Q
